B1: LINE1-full (parent)
chain: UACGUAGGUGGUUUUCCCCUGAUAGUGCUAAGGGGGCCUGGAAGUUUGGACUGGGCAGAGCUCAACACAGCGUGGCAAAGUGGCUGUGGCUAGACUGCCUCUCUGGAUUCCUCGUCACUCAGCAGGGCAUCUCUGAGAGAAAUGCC

- Variants of: B1
- protocol-details: self-cleavage, relative activity (ratio to wild type); higher = more cleavage; in vitro, sequencing; the parent is a self-cleaving ribozyme
So basically: self-cleavage at 0.3 or higher? That is 1.0. Lower than 0.3? That is 0.0.

These solved cases illustrate the format of a correct answer.
| variant-name | label-class |
| --- | --- |
| G34A G144A | 1.0 |
| C56G | 0.0 |

Prompt: Does the variant U23A A67U have recorded self-cleavage that is 0.3 or more?
Completion: 0.0

Prompt: And for U104C A129G ?
Completion: 1.0

Prompt: And for C19U G89A ?
Completion: 0.0

Prompt: And for U73A U100C ?
Completion: 1.0

Prompt: And for U115A G127A ?
Completion: 1.0

Prompt: And for U9C U143A ?
Completion: 1.0
